test system: rodent lifetime carcinogenesis bioassay, tumor incidence TD50; assay: carcinogenic potency in animals, long-term in vivo studies, CPDB compilation (AID 1745844); conditions: mouse; strain B6C3F1; females; by gavage; site: lung; lesion: alveolar/bronchiolar adenoma + alveolar/bronchiolar carcinoma; dosed 78 weeks; study length 90 weeks
measurement_name: log10 TD50 (log10 of the value in mg/kg/day)
Hi team, quick reminder: these entries are log10 of TD50 (mg/kg/day).

Below, 3 compounds whose answers are already recorded.
given_smiles: ClC(Cl)=C(Cl)Cl
log10 TD50: 3.47
//
given_smiles: ClCC(Cl)Cl
log10 TD50: 2.90
//
given_smiles: ClC=C(Cl)Cl
log10 TD50: 3.64

Q: Look at this compound and give its reported log10 TD50. `O=S1(=O)CC=CC1`
Ans: 3.29

Q: Suppose we examine the compound `CC(Cl)(Cl)Cl` ; what log10 TD50 value has been reported?
Ans: 5.41

Q: // lookup log10 TD50 for `ClC(Cl)(Cl)C(Cl)(Cl)Cl`
Ans: 3.84

* * *

test system: rodent lifetime carcinogenesis bioassay, tumor incidence TD50; assay: carcinogenic potency in animals, long-term in vivo studies, CPDB compilation (AID 1745844); conditions: rat; strain Fischer 344; males; inhaled; site: tongue; lesion: squamous-cell carcinoma + squamous-cell papilloma; dosed 104 weeks; study length 104 weeks
measurement_name: TD50 (mg/kg/day)
Give the value, in units of mg/kg/day, as a plain number.

Q: So what does the record say about TD50 for `C=CC(=C)Cl` ?
Ans: 13.6

* * *

tested on: rodent lifetime carcinogenesis bioassay, tumor incidence TD50; experiment: carcinogenic potency in animals, long-term in vivo studies, CPDB compilation (AID 1745844); conditions: rat; strain Fischer 344; males; by gavage; site: stomach; lesion: squamous-cell carcinoma; dosed 98 weeks; study length 104 weeks
measurement_name: TD50

Q: Can you share its TD50? I mean this compound: c1cc(OCC2CO2)cc(OCC2CO2)c1 (stereo unspecified)
Ans: 3.06 mg/kg/day

* * *

system: rodent lifetime carcinogenesis bioassay, tumor incidence TD50; assay: carcinogenic potency in animals, long-term in vivo studies, CPDB compilation (AID 1745844); settings: rat; strain Fischer 344; males; in feed; site: liver; lesion: hepatocellular adenoma; dosed 39 weeks; study length 66 weeks
measurement_name: TD50 (mg/kg/day)
Please state the figure in mg/kg/day; there is no need to write the unit.

Q: Quick one: TD50 of `Nc1c(Br)cc(Br)c2c1C(=O)c1ccccc1C2=O` ?
Ans: 97.8

* * *

system: rodent lifetime carcinogenesis bioassay, tumor incidence TD50; assay: carcinogenic potency in animals, long-term in vivo studies, CPDB compilation (AID 1745844); settings: rat; strain Fischer 344; males; oral dosing; site: skin of foot and toe + skin of back + skin of flank + skin; lesion: keratoacanthoma + basal-cell tumor + papilloma, NOS + sebaceous adenoma + trichoepithelioma; dosed 78 weeks; study length 104 weeks
measurement_name: TD50

Q: I would be grateful if you could share the reported TD50 for `COc1cc(-c2ccc(N=C=O)c(OC)c2)ccc1N=C=O` .
Ans: 1770 mg/kg/day

* * *

system: rodent lifetime carcinogenesis bioassay, tumor incidence TD50; assay: carcinogenic potency in animals, long-term in vivo studies, CPDB compilation (AID 1745844); details: rat; strain Fischer 344; males; in feed; site: adrenal medulla; lesion: pheochromocytoma, malignant + pheochromocytoma, benign; dosed 103 weeks; study length 104 weeks
measurement_name: TD50

Q: Which TD50 value is on record for `Cc1ccc(N=Nc2c(O)ccc3ccccc23)c([N+](=O)[O-])c1` ?
Ans: 661 mg/kg/day

* * *

tested on: rodent lifetime carcinogenesis bioassay, tumor incidence TD50; experiment: carcinogenic potency in animals, long-term in vivo studies, CPDB compilation (AID 1745844); settings: rat; strain Sprague-Dawley; females; in feed; site: any site (literature study); lesion: several types; types named in the paper; dosed 46 weeks; study length 66 weeks
measurement_name: TD50

// below: answered compounds
compound: O=c1[nH]nc(-c2ccc([N+](=O)[O-])o2)o1
TD50: 8.61 mg/kg/day
--
compound: O=C(Nc1nc(-c2ccc([N+](=O)[O-])o2)cs1)C(F)(F)F
TD50: 5.58 mg/kg/day
--
compound: CC(=O)NCc1nc(-c2ccc([N+](=O)[O-])o2)no1
TD50: 5.2 mg/kg/day
--
compound: O=C1N(CCO)CCN1N=Cc1ccc([N+](=O)[O-])o1
TD50: 18 mg/kg/day
--
compound: O=C1OC(CN2CCOCC2)CN1/N=C/c1ccc([N+](=O)[O-])o1 (configuration not stated)
TD50: 2.81 mg/kg/day
--
compound: CC1CN(/N=C/c2ccc([N+](=O)[O-])o2)C(=O)N1 (configuration not stated)
TD50: 5.59 mg/kg/day
--
compound: Nc1ncc([N+](=O)[O-])s1
TD50: 32.5 mg/kg/day
--
compound: Nc1nc(N)nc(-c2ccc([N+](=O)[O-])o2)n1
TD50: 1.71 mg/kg/day

Q: What measured TD50 goes with `CC(=O)Nc1nc(NC(C)=O)nc(-c2ccc([N+](=O)[O-])o2)n1` ?
Ans: 12.8 mg/kg/day

Q: Give its TD50 value. Item: `O=[N+]([O-])c1ccc(-c2nc(NCCO)c3ccccc3n2)s1`
Ans: 1.87 mg/kg/day

Q: // query TD50 value for entry `Nc1nnc(-c2ccc([N+](=O)[O-])o2)o1`
Ans: 2.74 mg/kg/day

Q: Fill in the blank: the reported TD50 of `OCCN(CCO)c1nc(-c2cccs2)nc2ccccc12` is ____.
Ans: 60.1 mg/kg/day

* * *

system: rodent lifetime carcinogenesis bioassay, tumor incidence TD50; assay: carcinogenic potency in animals, long-term in vivo studies, CPDB compilation (AID 1745844); conditions: rat; strain Fischer 344; females; in feed; site: liver; lesion: hepatocellular adenoma + hepatocellular carcinoma + neoplastic nodule; dosed 105 weeks; study length 105 weeks
measurement_name: TD50 (mg/kg/day)
Give the number; mg/kg/day is assumed, so skip it.

given_smiles: CCN(CC)C(=S)S[Te](SC(=S)N(CC)CC)(SC(=S)N(CC)CC)SC(=S)N(CC)CC
study_target: rodent lifetime carcinogenesis bioassay, tumor incidence TD50
measurement_name: TD50
unit_of_measure: mg/kg/day
value_measured: 650

Continue with the next compound.
Q: Short answer please: TD50, rodent lifetime carcinogenesis bioassay, tumor incidence TD50, entry `Nc1ccc(N)c(Cl)c1`
Ans: 3600

* * *

system: rodent lifetime carcinogenesis bioassay, tumor incidence TD50; assay: carcinogenic potency in animals, long-term in vivo studies, CPDB compilation (AID 1745844); settings: mouse; strain B6C3F1; males; oral dosing; site: liver; lesion: several types; types named in the paper; dosed 80 weeks; study length 80 weeks
measurement_name: TD50 (mg/kg/day)
Unit mg/kg/day implied. Number only.

Q: I would be grateful if you could share the reported TD50 for CC(COc1ccc(C(C)(C)C)cc1)OS(=O)OCCCl (stereo unspecified) .
Ans: 126

* * *

test system: rodent lifetime carcinogenesis bioassay, tumor incidence TD50; assay: carcinogenic potency in animals, long-term in vivo studies, CPDB compilation (AID 1745844); conditions: rat; strain Wistar albino; females; in feed; site: liver; lesion: hepatocellular carcinoma; dosed 91 weeks; study length 91 weeks
measurement_name: TD50

Q: Provide value of TD50 for this record tested with rodent lifetime carcinogenesis bioassay, tumor incidence TD50: `Cc1ccc(N=Nc2c(O)c(S(=O)(=O)O)cc3cc(S(=O)(=O)O)ccc23)c(C)c1`
Ans: 3270 mg/kg/day

* * *

tested on: rodent lifetime carcinogenesis bioassay, tumor incidence TD50; experiment: carcinogenic potency in animals, long-term in vivo studies, CPDB compilation (AID 1745844); details: rat; strain Fischer 344; males; by gavage; site: preputial gland; lesion: adenoma, NOS; dosed 104 weeks; study length 105 weeks
measurement_name: TD50 (mg/kg/day)
Respond numerically; units are mg/kg/day and should not be typed.

Q: Item under review: CCCC(Cl)CCCC(Cl)CCC(Cl)CCC(Cl)CCC(Cl)CCCC(Cl)CCC (stereo unspecified) . Reported TD50?
Ans: 568

* * *

Entries and their measured TD50 follow.
tested on: rodent lifetime carcinogenesis bioassay, tumor incidence TD50; assay: carcinogenic potency in animals, long-term in vivo studies, CPDB compilation (AID 1745844); details: mouse; strain B6C3F1; males; in feed; site: any site (literature study); lesion: several types; types named in the paper; dosed 106 weeks; study length 106 weeks
Expressed in mg/kg/day, but write only the number.

given_smiles: O=C1c2ccccc2-c2ccc3c4c(ccc1c24)-c1ccccc1C3=O
value_measured: 4410

Here's the next entry for you.
Q: Look up TD50: `CCN(CC)C(=S)S[Te](SC(=S)N(CC)CC)(SC(=S)N(CC)CC)SC(=S)N(CC)CC`
Ans: 902

* * *

test system: rodent lifetime carcinogenesis bioassay, tumor incidence TD50; experiment: carcinogenic potency in animals, long-term in vivo studies, CPDB compilation (AID 1745844); conditions: mouse; strain B6C3F1; females; in feed; site: liver; lesion: hepatocellular carcinoma; dosed 105 weeks; study length 105 weeks
measurement_name: TD50

given_smiles: Brc1cc(Br)c(-c2cc(Br)c(Br)cc2Br)cc1Br
study_target: rodent lifetime carcinogenesis bioassay, tumor incidence TD50
TD50: 0.588 mg/kg/day

// next item, TD50 requested
Q: Please look up its TD50: `[Cl][Sn][Cl]`
Ans: 1420 mg/kg/day
